Origin of the recorded values: ChEMBL document CHEMBL4689842

Listing: Growth Rate of selected compounds
System: Fibroblast
Test: Incucyte cell viability with human fibroblast; also: filed as whole numbers so only -1 and 0 and 1 occur
Type: toxicity, cell-based
Conditions: 6 h, 10 µM, compound concentration 10 uM, replicate number 2, timepoint 6 hours
Give your answer as a number; write no unit.

Guide cases for Growth Rate, answers given:
Cc1cc2c(cc1C1(c3ccc(C(=O)O)cn3)CC1)C(C)(C)CCC2(C)C	1
Cc1cc(OCC(=O)O)cc(C)c1Cc1ccc(O)c(C(C)C)c1	0
COc1ccc(CCc2nc3cc(-c4c(C)noc4C)ccc3n2C[C@H](C)N2CCOCC2)cc1Cl	0

Return Growth Rate measured with Fibroblast given this compound: COc1cccc(-c2c(C)n(Cc3c(F)cccc3C(F)(F)F)c(=O)n(C[C@H](NCCCC(=O)[O-])c3ccccc3)c2=O)c1F.[Na+] [ELAGOLIX SODIUM] 0

Return Growth Rate measured with Fibroblast given this compound: COc1cc(N2CCC(O)CC2)ccc1Nc1cc(Nc2ccccc2S(=O)(=O)C(C)C)c2cc[nH]c2n1 1

Return Growth Rate measured with Fibroblast given this compound: CCOC(=O)c1ncn2c1CN(C)C(=O)c1cc(F)ccc1-2 0

Return Growth Rate measured with Fibroblast given this compound: O=C(N1CCS(=O)(=O)CC1)N1C[C@H](c2ccc(OC(F)(F)F)cc2)C[C@H](c2nc(C3CC3)no2)C1 0

Return Growth Rate measured with Fibroblast given this compound: COc1cccc(CNC(=O)c2nc3scc(COCc4ccc(C(=O)O)cc4)c3c(=O)[nH]2)c1 [T-26c] 0

Return Growth Rate measured with Fibroblast given this compound: C[C@@H](Oc1cc(-n2cnc3ccc(CN4CCN(C)CC4)cc32)sc1C(N)=O)c1ccccc1C(F)(F)F 1

Return Growth Rate measured with Fibroblast given this compound: COc1ccc(Br)cc1S(=O)(=O)NC(=O)/C=C/c1ccccc1Cc1ccc2ccccc2c1 1

Return Growth Rate measured with Fibroblast given this compound: CC(C)c1cc(Nc2nc(N3CCC[C@H](N)C3)ncc2C(N)=O)cc(C(C)C)n1 0

Return Growth Rate measured with Fibroblast given this compound: CC(C)(N)C(=O)N[C@H](COCc1ccccc1)C(=O)N1CCC2(CC1)CN(S(C)(=O)=O)c1ccccc12.CS(=O)(=O)O [IBUTAMOREN MESYLATE] 1

Return Growth Rate measured with Fibroblast given this compound: Cn1cc(Cl)c2c(Oc3c(F)cc(Nc4cc(Cl)nc(N)n4)cc3F)ccnc21 0

Return Growth Rate measured with Fibroblast given this compound: CC(C)(O)c1cncc(-c2nc3ccc(F)cc3n2C2CC2)c1 0

Return Growth Rate measured with Fibroblast given this compound: COc1ccccc1-c1cc(Nc2cccc(CS(N)(=O)=O)c2)ncn1 1

Return Growth Rate measured with Fibroblast given this compound: CC(C)NCC(O)COc1cccc2ccccc12.Cl (stereo unspecified) [PROPRANOLOL HYDROCHLORIDE] 0

* * *

Test system: HEK-293T
Experiment: Multiplex assay against HEK293T
Format: toxicity, cell-based
Settings: human, 12 h, 10 µM, compound concentration 10 uM, replicate 2
Classification field: Met = Population Healthy Nuclei (%) at or over 80%; Not met = Population Healthy Nuclei (%) under 80%.

Example entries and their recorded answers appear below.
CCCCN(CC)c1nc(C)nc2c1c(C)cn2-c1c(C)cc(C)cc1C.Cl	Not met
Cl.Cn1c2c(c3ccc(Cl)c(Cl)c31)C(C#N)C1(CCNCC1)NC2=O (stereo unspecified)	Not met
Cc1c(P(=S)(c2ccccc2)c2ccccc2)n2ccccc2[n+]1C/C=C/c1ccccc1.[Br-]	Not met
CN(c1cc(C(F)(F)F)nc(OCCC(=O)O)n1)c1cccc2c1CCC2	Not met

Population Healthy Nuclei (%) >= 80% for CCOc1ccn(-c2ccc(F)cc2)c(=O)c1C(=O)Nc1ccc(Oc2ccnc(N)c2Cl)c(F)c1 ? Met

* * *

Tested on: U2OS
Test: Multiplex assay against U2OS
Format: toxicity, cell-based
Conditions: human, 12 h, 10 µM, compound concentration 10 uM, replicate 1
MEASURE: Population Mitotic Cells (%)
Dear colleague, please return just the value in %, with no unit written.

Guide cases for Population Mitotic Cells (%), answers given:
C[C@@H](Oc1cc(-n2cnc3ccc(CN4CCN(C)CC4)cc32)sc1C(N)=O)c1ccccc1C(F)(F)F	41
CCOC(=O)CCNc1cc(N2CCc3ccccc3CC2)nc(-c2ccccn2)n1	53
CC[C@@]1(O)C(=O)OCc2c1cc1n(c2=O)Cc2cc3ccccc3nc2-1	52
CC(C)c1cc(Nc2nc(N3CCC[C@H](N)C3)ncc2C(N)=O)cc(C(C)C)n1	35
Cc1c(Nc2ccc(S(=O)(=O)N3CCN(C)CC3)cc2F)nc2ccc(Nc3cnn(C4CC4)c3)cn2c1=O	72
Cc1ccc(S(=O)(=O)NC2c3ccccc3Oc3ccccc32)cc1	28

Return Population Mitotic Cells (%) measured with U2OS given this compound: CCCCN(CC)c1nc(C)nc2c1c(C)cn2-c1c(C)cc(C)cc1C.Cl 35

Return Population Mitotic Cells (%) measured with U2OS given this compound: CCCCCNC(=N)N/N=C/c1c[nH]c2ccc(OC)cc12.O=C(O)/C=C\C(=O)O [TEGASEROD MALEATE] 7

Return Population Mitotic Cells (%) measured with U2OS given this compound: Cc1c(P(=S)(c2ccccc2)c2ccccc2)n2ccccc2[n+]1C/C=C/c1ccccc1.[Br-] 10

Return Population Mitotic Cells (%) measured with U2OS given this compound: CC(Cc1ccc(O)c(O)c1)C(C)Cc1ccc(O)c(O)c1 (stereo not drawn) [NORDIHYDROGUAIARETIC ACID] 64

Return Population Mitotic Cells (%) measured with U2OS given this compound: Cc1ccc(NC(=O)Nc2cc(C(F)(F)F)ccc2F)cc1Nc1ccc2c(c1)NC(=O)/C2=C\c1ccc[nH]1 77

Return Population Mitotic Cells (%) measured with U2OS given this compound: c1ccc(-c2oc3ncnc(NC[C@@H]4CCCO4)c3c2-c2ccccc2)cc1 21

Return Population Mitotic Cells (%) measured with U2OS given this compound: CC[C@H](Nc1ncnc2[nH]cnc12)c1nc2cccc(F)c2c(=O)n1-c1ccccc1 100

Return Population Mitotic Cells (%) measured with U2OS given this compound: Cl.NC[C@@H]1O[C@H](C23CC4CC(CC(C4)C2)C3)Cc2c1ccc(O)c2O 62

Return Population Mitotic Cells (%) measured with U2OS given this compound: N#Cc1cccc(C(=O)Nc2cc(-c3ccccc3)nn2-c2ccccc2)c1 50

Return Population Mitotic Cells (%) measured with U2OS given this compound: N#CCNC(=O)c1ccc(-c2ccnc(Nc3ccc(N4CCOCC4)cc3)n2)cc1 55

Return Population Mitotic Cells (%) measured with U2OS given this compound: CN(c1cc(C(F)(F)F)nc(OCCC(=O)O)n1)c1cccc2c1CCC2 76

Return Population Mitotic Cells (%) measured with U2OS given this compound: Cl.Cn1c2c(c3ccc(Cl)c(Cl)c31)C(C#N)C1(CCNCC1)NC2=O (stereo not drawn) 43

* * *

Test system: U2OS
Test: Multiplex assay against U2OS
Type: toxicity, cell-based
Settings: human, 12 h, 1 µM, compound concentration 1 uM, replicate 1
Listing: Population Pyknosed Nuclei (%) of selected molecules
Dear colleague, please return just the value in %, with no unit written.

CC(Cc1ccc(O)c(O)c1)C(C)Cc1ccc(O)c(O)c1 (stereo not drawn) [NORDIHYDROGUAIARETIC ACID]	12
CC(C)C[C@H](NC(=O)[C@H](Cc1ccccc1)NC(=O)CNC(=O)CNC(=O)[C@@H](N)Cc1ccc(O)cc1)C(=O)O	10
C=CC(=O)Nc1cc(-n2c(=O)ccc3cnc4ccc(-c5ccc(NS(C)(=O)=O)cc5)cc4c32)ccc1C	12
C[C@@H](Oc1cc(-n2cnc3ccc(CN4CCN(C)CC4)cc32)sc1C(N)=O)c1ccccc1C(F)(F)F	15
Cc1c(P(=S)(c2ccccc2)c2ccccc2)n2ccccc2[n+]1C/C=C/c1ccccc1.[Br-]	9
Cl.Cn1c2c(c3ccc(Cl)c(Cl)c31)C(C#N)C1(CCNCC1)NC2=O (stereo not drawn)	7
CN1C(=O)[C@@H](NC(=O)c2cc3ccccc3[nH]2)N=C(c2ccccc2)c2ccccc21 [DEVAZEPIDE]	11

Consider now this further molecule.
Entry under review: CC(C)c1cc(Nc2nc(N3CCC[C@H](N)C3)ncc2C(N)=O)cc(C(C)C)n1 . Reported Population Pyknosed Nuclei (%)? 23

* * *

Tested on: U2OS
Test: Incucyte cell viability with U2OS; also: filed as whole numbers so only -1 and 0 and 1 occur
Type: toxicity, cell-based
Conditions: human, 12 h, 10 µM, compound concentration 10 uM, replicate number 2, timepoint 12 hours
MEASURE: Growth Rate
Give your answer as a number; write no unit.

Guide cases for Growth Rate, answers given:
CC[C@H](Nc1ncnc2[nH]cnc12)c1nc2cccc(F)c2c(=O)n1-c1ccccc1	0
CCN1CCC[C@H]1CNC(=O)c1c(OC)ccc(Br)c1OC [REMOXIPRIDE]	1
C[C@@H](N)Cc1c[nH]cn1.Cl.Cl	1
CC[C@@H]1C(=O)N(C)c2cnc(Nc3ccc(C(=O)N[C@H]4CC[C@H](N5CCN(CC6CC6)CC5)CC4)cc3OC)nc2N1C(C)C	1
CC(C)(N)C(=O)N[C@H](COCc1ccccc1)C(=O)N1CCC2(CC1)CN(S(C)(=O)=O)c1ccccc12.CS(=O)(=O)O [IBUTAMOREN MESYLATE]	1

Entry under review: C=CC(=O)Nc1cc(-n2c(=O)ccc3cnc4ccc(-c5ccc(NS(C)(=O)=O)cc5)cc4c32)ccc1C . Reported Growth Rate? 0

Entry under review: CCCCC#Cc1nc(NC)c2ncn([C@@H]3O[C@H](CO)[C@@H](O)[C@H]3O)c2n1 . Reported Growth Rate? 0
